Numbers sourced from BindingDB's records for patent US9556181.

# System: MAP kinase-interacting serine/threonine-protein kinase 1 [T344D] (Homo sapiens, UniProt Q9BUB5, T344D)
# Sequence (Q9BUB5 whole entry, looked up, stated change not applied): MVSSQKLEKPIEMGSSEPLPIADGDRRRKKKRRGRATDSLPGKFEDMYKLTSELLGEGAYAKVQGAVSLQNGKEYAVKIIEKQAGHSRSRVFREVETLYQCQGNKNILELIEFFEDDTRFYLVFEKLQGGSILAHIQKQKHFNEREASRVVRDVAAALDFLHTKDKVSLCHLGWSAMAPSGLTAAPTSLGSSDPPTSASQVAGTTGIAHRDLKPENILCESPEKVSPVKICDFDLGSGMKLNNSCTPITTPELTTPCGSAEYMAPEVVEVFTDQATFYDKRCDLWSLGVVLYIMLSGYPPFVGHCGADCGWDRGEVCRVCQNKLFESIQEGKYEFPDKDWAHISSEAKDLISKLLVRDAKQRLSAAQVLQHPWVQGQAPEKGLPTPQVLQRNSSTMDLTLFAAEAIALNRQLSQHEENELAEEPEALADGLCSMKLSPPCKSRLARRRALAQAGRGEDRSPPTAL
# Test: MKNK1 Kinase High ATP Assay
# Run Conditions: pH 7.5
Quantity Kind: IC50 (nM)
Respond with the bare value in nM.

State the recorded IC50 for this entry: COc1cc2[nH]ncc2cc1Nc1ncnc2[nH]ncc12
49
